Items are presented alongside their recorded composite z-score.
Test system: wheat germ agglutinin (Triticum aestivum), Alexa647-labelled
Method summary: Alexa647-WGA lectin binding to printed small molecules – biochemical, small-molecule microarray, 635/667 nm fluorescence, artefact control for SMM control-protein annotation, profiling panel (AID 1140);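 further: score merges 667 nm feature emission with signal to noise over triplicate slides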
Condition info: WGA-A647 binding, 635 nm fluorescence, higher = more signal
Assay metric: composite z-score

1) COC(=O)C(CC#Cc1ccc2c(c1)[C@]1(C(=O)N2)[C@H](c2ccccc2OCCO)N2[C@H](c3ccccc3)[C@H](c3ccccc3)OC(=O)[C@H]2[C@@H]1C(=O)O)C(=O)OC	0.702
2) COC(=O)[C@]1(CCC(=O)OC(C)(C)C)N=C(c2ccc(OCCCO)cc2)O[C@@H]1c1ccccc1	0.197
3) CC(C)(C)OC(=O)CC[C@]1(C(=O)NCCN2CCOCC2)COC(c2ccc(OCCCO)cc2)=N1	0.253
4) CN(C)CCCC[C@@H]1NC(=O)[C@H]2C[C@@H](C(=O)NCCCCCN)[C@@H](c3cccc(OCCO)c3)N2C1=O	1.48
5) CCN(CC)c1ccc(N2CC=CC34O[C@@H]5C=CCOC(=O)[C@@H]5[C@H]3C(=O)N(CCCCCCO)[C@@H]4C2=O)cc1 (some centres undefined)	-0.0009
6) COc1ccc(-c2cc3c(c(Cc4ccccc4)n2)[Si](C(C)C)(C(C)C)OC3)cn1	-0.351
7) O=C(O)[C@H](Cc1ccccc1)n1cc(-c2ccccc2)nn1	0.651
8) COC(=O)C[C@H]1O[C@@H](CCc2ccccc2)[C@@H](C)[C@@H]1[Si](C)(C)c1ccc(OC)cc1	-0.359
9) [N-]=[N+]=Nc1ccccc1[C@H]1OC(c2ccc(OCCCO)cc2)=N[C@@]1(Cc1ccccc1)C(=O)N1CCOCC1	1.09

---

System name: Dickkopf-related protein 1 (Homo sapiens) (UniProt O94907)
Sequence (O94907 whole entry, looked up): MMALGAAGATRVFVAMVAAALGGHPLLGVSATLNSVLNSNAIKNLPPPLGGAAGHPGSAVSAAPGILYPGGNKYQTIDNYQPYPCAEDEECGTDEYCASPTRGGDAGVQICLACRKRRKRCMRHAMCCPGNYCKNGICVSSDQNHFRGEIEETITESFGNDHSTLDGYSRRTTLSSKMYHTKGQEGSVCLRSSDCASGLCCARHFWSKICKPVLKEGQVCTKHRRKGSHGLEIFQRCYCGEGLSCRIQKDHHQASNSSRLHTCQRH
Method summary: small molecules binding DKK1 protein – biochemical, small-molecule microarray, 635 nm fluorescence scan, primary screen (AID 1106);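 further: score merges emission near 667 nm with signal to noise over three replicate slides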
Condition info: higher = more signal
Items are presented alongside their recorded composite z-score.
Assay metric: composite z-score

1) O=C1C2C=CC(C(O)COCc3ccccc3)N(Nc3ccc([N+](=O)[O-])cc3)C2C(=O)N1c1ccccc1 (configuration not stated)	0.111
2) COC(=O)[C@H](Cc1ccccc1)N[C@H](/C=C/C1CC1)[C@@H](O)Cc1ccccc1	-0.506
3) [N-]=[N+]=NCc1ccccc1[C@@H]1OC(c2ccc(OCCCO)cc2)=N[C@]1(CCS(=O)(=O)c1ccccc1)C(=O)N1CCCCC1	-0.154
4) CCOC(=O)C1=CC[C@@H](c2ccc(C(F)(F)F)cc2)N(S(=O)(=O)c2ccc(C)cc2)[C@H]1c1ccccc1	-0.305
5) COCCCNC(=O)[C@@]1(Sc2ccc(C)cc2)CC(=O)N(Cc2ccccc2Cl)[C@@H]1c1ccc(CO)cc1	0.553
6) CCOC(=O)C[C@H]1[C@H](OC(=O)c2ccc(-c3ccccc3)cc2)[C@@H](NC(=O)c2ccccc2)c2cc(OCCCO)ccc2N1C(=O)Cc1ccc(OC)cc1	-0.237
7) C[C@H]1C2[C@H](Cc3ccccc3)NC(=O)[C@]23C(=O)NCC(=O)N2CCC[C@H]2C(=O)NC/C=C/CCC/C=C/C3[C@@H]2O[C@]12C (some centres not stated)	-0.233
8) CCCCC(O)C1C=CC2C(=O)N(C)C(=O)C2N1N1CCCCC1 (configuration not stated)	0.0003
9) CC(C)(C)OC(=O)CC[C@]1(C(N)=O)N=C(c2ccc(OCCCO)cc2)O[C@H]1c1ccccc1	-1.16
10) CC(=CC1CCCCC1)[C@@H](NC(=O)c1cccnc1)c1ccc(-c2ccccc2)cc1	-0.44
11) COC(=O)C(CC#Cc1ccc2c(c1)[C@]1(C(=O)N2)[C@H](c2ccccc2OCCO)N2[C@H](c3ccccc3)[C@H](c3ccccc3)OC(=O)[C@H]2[C@@H]1C(=O)O)C(=O)OC	0.278
12) COC(=O)C[C@H]1O[C@@H](CCc2ccccc2)[C@@H](C)[C@@H]1[Si](C)(C)c1ccc(OC)cc1	0.149
